# target under test: alkaline phosphatase (Bos taurus)
# Type: biochemical
# Design: purchased Sigma Aldrich, St. Louis, MO P0114 (original source); P7640 (second source, 'new AP' condition only)
Property: A1-Results R1; scope: individual compounds
The answer should be a number; do not append a unit.

These solved cases illustrate the format of a correct answer.
Task: Fill in: A1-Results R1 of CN(C)Cc1ccccc1 is ___
Result: 3.265

Task: Let us now turn to CC(=O)O
Result: 0.096

Task: Queued: CCCCCCCCCCO
Result: 3.502

***
Task: A1-Results R1 for CC/C=C\CC1=C(C)CCC1=O ?
Result: 3.502

Task: Next up: CC(C)O
Result: 3.484

Task: Field entry: CC(CC=O)CCCC(C)(C)O (stereo not shown) [Hydroxycitronellal]
Result: 3.412

Task: Now consider CCCCCCCN .
Result: 2.141

---

# target under test: alkaline phosphatase (Bos taurus, UniProt P19111)
# Sequence (P19111 20-506): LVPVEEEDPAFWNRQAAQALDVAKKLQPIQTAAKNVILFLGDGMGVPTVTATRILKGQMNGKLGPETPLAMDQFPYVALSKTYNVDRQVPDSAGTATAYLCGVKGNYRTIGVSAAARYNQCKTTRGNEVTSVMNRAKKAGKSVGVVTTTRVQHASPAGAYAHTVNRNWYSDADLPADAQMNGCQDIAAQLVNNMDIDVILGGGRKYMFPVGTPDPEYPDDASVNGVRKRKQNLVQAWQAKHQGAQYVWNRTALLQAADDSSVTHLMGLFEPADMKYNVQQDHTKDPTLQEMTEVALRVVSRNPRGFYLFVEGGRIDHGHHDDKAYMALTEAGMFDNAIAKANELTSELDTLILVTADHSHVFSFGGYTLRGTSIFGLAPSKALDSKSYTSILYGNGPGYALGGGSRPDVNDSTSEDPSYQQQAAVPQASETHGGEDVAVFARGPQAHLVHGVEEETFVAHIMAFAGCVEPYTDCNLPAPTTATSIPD
# Assay type: biochemical
# Design: purchased Sigma Aldrich, St. Louis, MO P0114 (original source); P7640 (second source, 'new AP' condition only)
# measurement setup: 1:100; 20 μL into 180 μL; 0.5 mL microcentrifuge tubes; 4 hours RT; PNPP 60 min; 405 nm
property label: A1-Results R1

Task: Please report the recorded A1-Results R1 for CCCSSCCC [di-n-Propyl disulfide] .
Result: 3.467

Task: Same thing, different compound: C=CCCC=C
Result: 3.502

Task: Likewise for CC(C=O)Cc1ccc(C(C)C)cc1 (stereo not shown) ?
Result: 3.405

---

# target under test: alkaline phosphatase (Bos taurus)
# Type: biochemical
# Parameters: purchased Sigma Aldrich, St. Louis, MO P0114 (original source); P7640 (second source, 'new AP' condition only)
# measurement setup: 1:100; 20 μL into 180 μL; 0.5 mL microcentrifuge tubes; 4 hours RT; PNPP 60 min; 405 nm
property label: A1-Results R1
In your answer, state the number alone without any accompanying words.

Task: # value lookup — system alkaline phosphatase (Bos taurus), readout A1-Results R1, item CSc1ccc(C=O)cc1
Result: 3.354

Task: Same thing, different compound: CC(=O)OCc1ccccc1 [Benzyl Acetate]
Result: 3.401

Task: Can you handle CC(C)N(C)C [Dimethylisopropylamine] next?
Result: 3.423

Now turn to the next compound.
Task: Give the reported A1-Results R1 for CCCCCBr [1-Bromopentane] (system: alkaline phosphatase (Bos taurus)).
Result: 3.428

---

# System: endogenous skin phosphatase
# Assay type: biochemical, porcine
# measurement setup: optical density compared to the naïve condition
property label: percent of phosphatase measured (second reading) (%)
Answer format: numeric, % implied, no suffix.

Task: Given the entry CN(C)CCCNCCCN [Dimethyldipropylenetriamine] , report its measured percent of phosphatase measured (second reading).
Result: 17.7

***
Task: Which percent of phosphatase measured (second reading) is listed for CCCCCCC=O [Heptanal] ?
Result: 94.4

Task: Would you kindly repeat that for CC(=O)O [Acetic acid] ?
Result: 18.6

Task: Another compound to look at: OCCOCCOCCO [Triethylene glycol]
Result: 28.2

Task: Now try CCCSSCCC [di-n-Propyl disulfide] .
Result: 71.6

Task: Continue with CC(C=O)Cc1ccc(C(C)C)cc1 (stereo not drawn) [Cyclamen aldehyde]
Result: 100.0

Task: Another compound to check: BrCCc1ccccc1 [(2-Bromoethyl)benzene]
Result: 100.0

Task: Next entry: NCCO [Ethanolamine]
Result: 19.6

Task: Another: CC(C)(O)CCc1ccccc1 [2-Methyl-4-phenyl-2-butanol]
Result: 100.0

---

# A1-Results R3 per entry
# target under test: alkaline phosphatase (Bos taurus, UniProt P19111)
# Assay type: biochemical
# Parameters: purchased Sigma Aldrich, St. Louis, MO P0114 (original source); P7640 (second source, 'new AP' condition only)

Field: example entries. Status: answers known.
Task: Item CC(C)O [Isopropanol] has what recorded A1-Results R3?
Result: 3.305

Task: Item: CCCCCCC=O [Heptanal]
Result: 3.049

Task: Subsequent entry: CCCCCCCCCCO [1-Decanol]
Result: 3.380

More entries:
Task: Name the recorded A1-Results R3 for CC(CC=O)CCCC(C)(C)O (stereo not shown) [Hydroxycitronellal] .
Result: 3.154

Task: Would you mind doing CC(=O)O [Acetic acid] as well?
Result: 0.096

Task: Now the compound CC/C=C\CC1=C(C)CCC1=O
Result: 3.502

---

# A1-Results AVG values compiled below
# target under test: alkaline phosphatase (Bos taurus, UniProt P19111)
# Assay type: biochemical
# Parameters: purchased Sigma Aldrich, St. Louis, MO P0114 (original source); P7640 (second source, 'new AP' condition only)
# measurement setup: average of R1-R3; 1:100; 20 μL into 180 μL; 4 hours RT; PNPP 60 min; 405 nm
Respond with the number and no other words.

Look over these answered cases.
Task: I am curious: what A1-Results AVG value has been reported for CCCCCBr ?
Result: 3.261

Task: Next compound up: CCCCCCCC(=O)O
Result: 0.797

Task: Similarly, ClCCCCBr ?
Result: 3.464

---
Task: For the compound O=C(OCc1ccccc1)c1ccccc1O [Benzyl Salicylate] , what A1-Results AVG is on record?
Result: 3.464

Task: Now give it for [K+].[OH-] [Potassium hydroxide (10%)] too.
Result: 0.114

Task: Next: CN(C)CCCNCCCN
Result: 0.121

Task: Quick one: CC(C)(C)c1ccccc1O
Result: 0.524

Task: Again, but for Cc1ccc(C(C)C)cc1O
Result: 0.242

Task: And the next one, CCCCCCCCC=O ?
Result: 3.296

Task: Record: CC1=CCC(C(C)(C)O)CC1 (stereo not shown)
Result: 3.502

---

# Test system: endogenous skin phosphatase
# Type: biochemical, porcine
# measurement setup: optical density compared to the naïve condition
Please use TRUE whenever percent of phosphatase measured (first reading) is not below 30%, and FALSE whenever it is.

Example entries and their recorded answers appear below.
Task: Form field: percent of phosphatase measured (first reading) at least 30%? Entry: CC(=O)O
Result: FALSE

Task: Try this compound too: NCCO
Result: FALSE

Task: Moving on to BrCCc1ccccc1
Result: TRUE

Task: Queued: CCCSSCCC [di-n-Propyl disulfide]
Result: TRUE

Task: Let us now turn to CC(C)(O)CCc1ccccc1
Result: TRUE

Task: Consider next the compound CN(C)CCCNCCCN in the same way.
Result: FALSE

Task: Same lookup for CCCCCCC=O , please.
Result: TRUE

Further cases:
Task: // inclusive: percent of phosphatase measured (first reading) at least 30%? input: CC(C=O)Cc1ccc(C(C)C)cc1 (stereo not drawn)
Result: TRUE

---

Some compounds, each annotated with its measured A1-Results AVG.
# target under test: alkaline phosphatase (Bos taurus, UniProt P19111)
# Assay type: biochemical
# Design: purchased Sigma Aldrich, St. Louis, MO P0114 (original source); P7640 (second source, 'new AP' condition only)
# measurement setup: average of R1-R3; 1:100; 20 μL into 180 μL; 4 hours RT; PNPP 60 min; 405 nm
Answer as a number with no unit attached.

Task: Name the recorded A1-Results AVG for CC(C=O)Cc1ccc(C(C)C)cc1 (stereo not shown) [Cyclamen aldehyde] .
Result: 3.470

Task: Next record, please: CC(C)=CCC/C(C)=C/CO
Result: 3.470

Task: Also need CCCSSCCC [di-n-Propyl disulfide] , thanks.
Result: 3.445

Task: Let us now turn to CC(=O)OCc1ccccc1 [Benzyl Acetate]
Result: 3.463

---

# A1-Results R3 values compiled below
# target under test: alkaline phosphatase (Bos taurus, UniProt P19111)
# Assay type: biochemical
# Design: purchased Sigma Aldrich, St. Louis, MO P0114 (original source); P7640 (second source, 'new AP' condition only)
# measurement setup: 1:100; 20 μL into 180 μL; 0.5 mL microcentrifuge tubes; 4 hours RT; PNPP 60 min; 405 nm
I'd appreciate a reply containing only the number, no unit.

Task: GET /values?readout=A1-Results R3&item= Cc1ccc(C(C)C)cc1O
Result: 0.272

Task: Next molecule up: CC(=O)OCc1ccccc1 [Benzyl Acetate]
Result: 3.502

Task: Queued: C=CCCC=C [1,5-Hexadiene]
Result: 3.498

Task: And for CC(C)=CCC/C(C)=C/CO ?
Result: 3.502

Task: Now consider CCCCCCCCC=O [Nonyl aldehyde] .
Result: 3.050

Task: Another: O=C(OCc1ccccc1)c1ccccc1O [Benzyl Salicylate]
Result: 3.445

---

As shown below, each of these compounds has a reported A1-Results R3 value.
# target under test: alkaline phosphatase (Bos taurus, UniProt P19111)
# Type: biochemical
# Design: purchased Sigma Aldrich, St. Louis, MO P0114 (original source); P7640 (second source, 'new AP' condition only)
# measurement setup: 1:100; 20 μL into 180 μL; 0.5 mL microcentrifuge tubes; 4 hours RT; PNPP 60 min; 405 nm
Please respond with just the number, no unit label.

Task: Data request, read-out A1-Results R3, for CC(C)N(C)C [Dimethylisopropylamine]
Result: 3.485

***
Task: Recorded A1-Results R3 for CN(C)CCCNCCCN [Dimethyldipropylenetriamine] , please?
Result: 0.124

Task: Thanks! And CC(C=O)Cc1ccc(C(C)C)cc1 (stereo not shown) [Cyclamen aldehyde] ?
Result: 3.502

Task: Entry to check: CSc1ccc(C=O)cc1
Result: 3.238
